Parameter pKi: see the listing below.
- tested system: UniProt:P08709
- Sequence (P08709 213-466 limits assumed): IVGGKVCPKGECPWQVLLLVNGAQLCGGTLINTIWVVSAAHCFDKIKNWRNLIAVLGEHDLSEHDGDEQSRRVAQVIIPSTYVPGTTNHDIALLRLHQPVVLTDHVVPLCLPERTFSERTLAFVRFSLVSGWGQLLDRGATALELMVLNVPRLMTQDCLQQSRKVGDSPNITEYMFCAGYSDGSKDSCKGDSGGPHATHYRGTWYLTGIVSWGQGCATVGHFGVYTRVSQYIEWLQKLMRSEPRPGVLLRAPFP
- Sequence (P08709 61-212 partner limits assumed): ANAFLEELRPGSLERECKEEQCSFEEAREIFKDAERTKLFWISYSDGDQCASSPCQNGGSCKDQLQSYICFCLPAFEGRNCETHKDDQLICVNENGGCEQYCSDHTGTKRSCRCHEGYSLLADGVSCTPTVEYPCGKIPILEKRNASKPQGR
pKi: −log10 of the molar value. Structures can show the parent of a compound that is named as a salt.

These solved cases illustrate the format of a correct answer.
CN(CC(=O)NC(CCCN)B1OC2CC3CC(C3(C)C)C2(C)O1)C(=O)c1ccccc1Sc1ccccc1C#N (stereo not drawn) [Example 62.3.1, HCl] : > 4.30
CC1(C)C2CC3OB(C(CCCCN)NC(=O)CN(CCc4cccc(C(F)(F)F)c4)C(=O)CCc4ccccc4)OC3(C)C1C2 (stereo not drawn) [Example 51.1.1, HCl] : > 4.30
Cc1cccc(CCN(CC(=O)NC(CCCCN)B(O)O)C(=O)CCc2ccccc2)c1 (stereo not drawn) [Example 52.1.2, hydrochloride salt] : > 4.30
COC(=O)CC(C)(C)CC(=O)N(CCc1ccccc1)CC(=O)NC(CCCCN)B(O)O (stereo not drawn) [Example 66.1.3, HCl] : > 4.30
CC(C)(CN(CC(=O)NC(CCCCN)B1OC2CC3CC(C3(C)C)C2(C)O1)C(=O)CCc1ccccc1)c1ccccc1 (stereo not drawn) [Example 54.3.3, HCl] : > 6.30

What measured pKi goes with NCCCCC(NC(=O)CN(CCc1ccccc1)C(=O)CCC(=O)O)B(O)O (stereo not drawn) [Example 68.3.1, Succinyl-[N-(Phenethyl)-Gly]-boroLys--OH] ?
> 4.30

---

- tested system: human factor VIIa (Homo sapiens, UniProt P08709)
- Sequence (P08709 213-466 limits assumed): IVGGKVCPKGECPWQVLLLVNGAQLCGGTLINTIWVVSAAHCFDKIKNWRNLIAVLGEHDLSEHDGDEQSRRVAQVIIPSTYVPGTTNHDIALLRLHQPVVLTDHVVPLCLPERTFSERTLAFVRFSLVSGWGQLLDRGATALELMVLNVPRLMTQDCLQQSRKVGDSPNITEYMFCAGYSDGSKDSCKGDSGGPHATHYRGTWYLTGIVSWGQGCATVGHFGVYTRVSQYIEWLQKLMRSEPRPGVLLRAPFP
- Sequence (P08709 61-212 partner limits assumed): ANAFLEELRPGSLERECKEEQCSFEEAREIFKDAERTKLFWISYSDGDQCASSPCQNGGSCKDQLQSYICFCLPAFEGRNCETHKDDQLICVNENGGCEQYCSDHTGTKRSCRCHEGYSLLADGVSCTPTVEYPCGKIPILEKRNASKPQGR
Structures can show the parent of a compound that is named as a salt.
quantity name: Ki

CC1(C)C2CC3OB(C(CCCNC(=N)N)NC(=O)CN(CCc4ccccc4C4CC4)C(=O)CCc4ccccc4)OC3(C)C1C2 (stereo not drawn) [Example 56.1.2, HCl] : < 500 nM
COC(=O)CCC(=O)N(CC(=O)NC(CCCCN)B1OC2CC3CC(C3(C)C)C2(C)O1)C(=O)CCc1ccccc1 (stereo not drawn) [Example 54.3.1, HCl] : < 50000 nM
CCC(CC)(CN(CC(=O)NC(CCCCN)B1OC2CC3CC(C3(C)C)C2(C)O1)C(=O)CCc1ccccc1)c1ccccc1 (stereo not drawn) [Example 54.1.3, HCl] : < 500 nM
CC1(C)C2CC3OB(C(CCCCN)NC(=O)CN(CCc4ccccc4)C(=O)CNS(C)(=O)=O)OC3(C)C1C2 (stereo not drawn) [Example 69.3.2, HCl] : < 500 nM
Cc1cccc(CCN(CC(=O)NC(CCCCN)B2OC3CC4CC(C4(C)C)C3(C)O2)C(=O)CCC(=O)O)c1 (stereo not drawn) [Example 73.1.2, HCl] : < 50000 nM
CC1(C)C2CC3OB(C(CCCCN)NC(=O)CN(CCc4ccccc4C4CCCC4)C(=O)CCc4ccccc4)OC3(C)C1C2 (stereo not drawn) [Example 54.3.2, HCl] : < 500 nM
NCCCCC(NC(=O)CN(CCc1ccccc1C1CC1)C(=O)CCc1ccccc1)B(O)O (stereo not drawn) [Example 53.1.2, HCl] : < 500 nM
CN(CC(=O)NC(CCCCN)B1OC2CC3CC(C3(C)C)C2(C)O1)C(=O)c1ccccc1Cc1cccc(Cl)c1 (stereo not drawn) : < 500 nM

What measured Ki goes with CC(C)(CN(CC(=O)NC(CCCN)B1OC2CC3CC(C3(C)C)C2(C)O1)C(=O)CCc1ccccc1)c1ccccc1 (stereo not drawn) [Example 60.3.3, HCl] ?
< 50000 nM
